Origin of values: patent US20250228835A1

Can you tell me EC50 for the items I'm about to list?
- measurementTarget: ABCD2 WT (Homo sapiens)
- Sequence (Q9UBJ2 whole entry): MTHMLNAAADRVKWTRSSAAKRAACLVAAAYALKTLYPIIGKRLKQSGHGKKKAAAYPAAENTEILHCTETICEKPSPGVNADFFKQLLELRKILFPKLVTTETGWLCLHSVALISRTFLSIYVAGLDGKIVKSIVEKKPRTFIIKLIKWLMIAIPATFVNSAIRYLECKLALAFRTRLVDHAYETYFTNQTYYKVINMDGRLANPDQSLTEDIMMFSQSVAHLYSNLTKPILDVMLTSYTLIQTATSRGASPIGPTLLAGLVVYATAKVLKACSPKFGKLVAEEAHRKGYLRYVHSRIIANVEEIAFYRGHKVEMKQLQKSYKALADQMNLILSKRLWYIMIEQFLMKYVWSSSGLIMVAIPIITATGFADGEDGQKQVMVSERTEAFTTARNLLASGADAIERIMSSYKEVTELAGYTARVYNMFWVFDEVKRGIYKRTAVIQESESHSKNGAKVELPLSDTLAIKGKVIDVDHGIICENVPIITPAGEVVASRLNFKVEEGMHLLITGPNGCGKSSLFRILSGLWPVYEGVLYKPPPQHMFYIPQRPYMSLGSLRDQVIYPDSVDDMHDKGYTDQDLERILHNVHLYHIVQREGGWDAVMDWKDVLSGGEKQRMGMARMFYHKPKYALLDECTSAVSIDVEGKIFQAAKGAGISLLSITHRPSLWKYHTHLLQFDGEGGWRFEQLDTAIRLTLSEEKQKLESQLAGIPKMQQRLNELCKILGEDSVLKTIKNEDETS
- procedureDetails: D2 correction dose-response assay: ABCD2 WT HiBit protein expression
- runParameters: HEK-293/ABCD2 WT cells, 24 hours treatment, HiBit luminescence; class combines EC50 and Mean MaxAct (fold); read-out: ABCD2 WT EC50, Emax

Query :: Using the record for Cc1cc(C(F)(F)F)nc(C2CC2)c1Oc1nc(-c2cncc(C#N)c2)ccc1S(=O)(=O)NC1CCOCC1 , state its measured EC50.
Result :: 1 to 10 µM

Query :: Please indicate EC50 recorded for Cc1cc(C)c(Oc2nc(-c3cccc(C#N)n3)ccc2NS(C)(=O)=O)c(C)n1
Result :: 10 to 25 µM

Query :: Identify measured EC50 associated with Cc1cc(C2CC2)nc(C)c1Oc1nc(-c2cncc(C#N)c2)ccc1S(C)(=N)=O (stereo not shown)
Result :: > 25 µM

Query :: Supply reported EC50 belonging to this compound: Cc1cc(C2CC2)nc(C)c1Oc1nc(-c2cncc(Cl)c2)ccc1NS(C)(=O)=O
Result :: < 1 µM

* * *

Consider the following compounds; for each one, report its EC50.
- measurementTarget: ABCD2 WT (Homo sapiens)
- procedureDetails: D2 correction dose-response assay: ABCD2 WT HiBit protein expression
- runParameters: HEK-293/ABCD2 WT cells, 24 hours treatment, HiBit luminescence; class combines EC50 and Mean MaxAct (fold); read-out: ABCD2 WT EC50, Emax

Query :: Return the recorded EC50 value; entry: Cc1cc(C)c(Oc2nc(-c3cncc(N4CCC4)c3)ccc2NS(C)(=O)=O)c(C)n1 [Compound I-190]
Result :: < 1 µM

Query :: Report measured EC50; entry is Cc1cc(C(F)(F)F)nc(C2CC2)c1Oc1nc(-c2cccc(C#N)c2)ccc1S(=N)(=O)C1CC1 (centres unmarked) [Compound I-295]
Result :: 10 to 25 µM

Query :: Supply measured EC50 of Cc1nc(C(F)F)nc(C)c1Oc1nc(-c2cncc(C#N)c2)ccc1NS(C)(=O)=O [Compound I-173] in your reply.
Result :: < 1 µM

Query :: Return EC50 (reported value) for this compound: C#Cc1cncc(-c2ccc(NS(C)(=O)=O)c(Oc3c(C)cc(C)nc3C)n2)c1 [Compound I-212]
Result :: < 1 µM

Query :: Give me measured EC50, please, for this compound: Cc1cc(C)c(Oc2nc(-c3cncc(C#N)c3)ccc2NS(=O)(=O)C(C)C)c(C)n1 [Compound I-276]
Result :: > 25 µM

Query :: Report measured EC50; entry is Cc1nc(C2CC2)c(C(F)F)cc1Oc1nc(-c2cncc(C#N)c2)ccc1NS(C)(=O)=O [Compound I-179]
Result :: < 1 µM

Query :: Give reported EC50 value for Cc1cc(C)c(Oc2nc(-c3cncc(Cl)c3)cnc2NS(C)(=O)=O)c(C)n1 [Compound I-260]
Result :: 1 to 10 µM

Query :: Indicate the recorded EC50 value for this compound: Cc1nc(N2CC(F)(F)C2)nc(C)c1Oc1nc(-c2cncc(C#N)c2)ccc1NS(C)(=O)=O [Compound I-170]
Result :: 1 to 10 µM

* * *

- measurementTarget: ABCC6 WT (Homo sapiens, UniProt O95255)
- Construct: expressed in transfected cells; host or cells: HEK-293 (transient, Lipofectamine 2000)
- Sequence (O95255 whole entry): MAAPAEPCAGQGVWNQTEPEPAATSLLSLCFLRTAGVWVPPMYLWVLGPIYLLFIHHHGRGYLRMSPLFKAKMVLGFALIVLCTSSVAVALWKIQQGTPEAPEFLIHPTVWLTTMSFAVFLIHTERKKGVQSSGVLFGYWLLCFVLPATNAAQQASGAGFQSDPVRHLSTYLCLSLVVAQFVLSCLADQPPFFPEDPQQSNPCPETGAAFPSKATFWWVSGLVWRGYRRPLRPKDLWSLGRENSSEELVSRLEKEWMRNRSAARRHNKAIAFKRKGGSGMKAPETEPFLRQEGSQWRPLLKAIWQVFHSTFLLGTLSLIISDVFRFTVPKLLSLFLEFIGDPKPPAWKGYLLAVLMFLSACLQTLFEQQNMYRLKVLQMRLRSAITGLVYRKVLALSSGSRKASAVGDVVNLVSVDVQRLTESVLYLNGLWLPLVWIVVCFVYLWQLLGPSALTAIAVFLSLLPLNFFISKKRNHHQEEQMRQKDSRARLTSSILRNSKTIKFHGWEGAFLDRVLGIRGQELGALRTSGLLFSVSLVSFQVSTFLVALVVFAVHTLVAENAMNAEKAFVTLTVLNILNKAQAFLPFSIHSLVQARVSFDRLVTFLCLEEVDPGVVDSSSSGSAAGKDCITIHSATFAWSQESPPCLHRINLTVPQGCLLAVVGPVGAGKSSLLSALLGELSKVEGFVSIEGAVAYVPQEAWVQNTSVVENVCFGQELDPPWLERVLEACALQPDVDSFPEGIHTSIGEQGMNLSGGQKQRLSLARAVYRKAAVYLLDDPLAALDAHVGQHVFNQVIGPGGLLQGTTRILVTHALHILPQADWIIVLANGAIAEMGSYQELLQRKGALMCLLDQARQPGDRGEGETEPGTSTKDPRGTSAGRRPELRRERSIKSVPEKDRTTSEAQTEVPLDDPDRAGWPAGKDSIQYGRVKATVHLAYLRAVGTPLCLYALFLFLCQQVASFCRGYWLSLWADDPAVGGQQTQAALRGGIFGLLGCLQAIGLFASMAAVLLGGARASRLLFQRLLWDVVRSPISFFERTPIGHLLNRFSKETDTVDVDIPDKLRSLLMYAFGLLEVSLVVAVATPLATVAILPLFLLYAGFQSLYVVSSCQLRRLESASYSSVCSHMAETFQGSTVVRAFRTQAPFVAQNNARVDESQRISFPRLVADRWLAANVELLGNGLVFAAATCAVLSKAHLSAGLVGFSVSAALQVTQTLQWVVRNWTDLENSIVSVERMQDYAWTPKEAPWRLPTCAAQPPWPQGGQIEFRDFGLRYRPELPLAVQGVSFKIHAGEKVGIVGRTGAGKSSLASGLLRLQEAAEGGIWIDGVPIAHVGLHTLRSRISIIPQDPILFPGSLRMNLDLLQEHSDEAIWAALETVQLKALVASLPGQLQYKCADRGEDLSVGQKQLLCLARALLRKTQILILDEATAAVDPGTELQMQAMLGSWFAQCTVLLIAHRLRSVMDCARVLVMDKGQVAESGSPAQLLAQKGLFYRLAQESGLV
- procedureDetails: ABCC6 WT assay: HiBit protein expression
- Type: cell-based
- runParameters: HEK-293 cells transiently expressing HiBit-tagged ABCC6 WT; 24 h treatment; top concentration 20 μM; read-out: ABCC6 WT EC50, Emax
pEC50: −log10 of the molar value.
For each entry below, report its pEC50 value.

Query :: Return the recorded pEC50 value; entry: Cc1cc(C)c(Oc2nc(-c3cncc(C#N)c3)ccc2N(C)S(C)(=O)=O)c(C)n1
Result :: 5.00 to 6.00

Query :: Please supply the value of reported pEC50 for the item Cc1cc(C2CC2)nc(C)c1Oc1nc(-c2cncc(Cl)c2)ccc1NS(C)(=O)=O
Result :: > 6.00

Query :: Consider the compound Cc1cc(C(F)(F)F)nc(C)c1Oc1nc(-c2ccnc(C#N)c2)ccc1NS(C)(=O)=O . State its measured pEC50.
Result :: > 6.00

Query :: For the compound Cc1nc(C(F)(F)F)nc(C2CC2)c1Oc1nc(-c2cncc(C#N)c2)ccc1S(=O)(=O)Nc1cnn(C)c1 , report pEC50.
Result :: 5.00 to 6.00

Query :: Retrieve pEC50 measured for Cc1cc(C2CC2)nc(C)c1Oc1nc(-c2cncc(Cl)c2)ccc1NS(=O)(=O)C1COC1 and print it.
Result :: > 6.00

Query :: For the compound COc1ccc2nc[nH]c2c1S(=O)(=O)Nc1ccc(-c2cncc(Cl)c2)nc1Oc1c(C)cc(C)cc1C , give its measured pEC50 value.
Result :: > 6.00

Query :: // Input: CNS(=O)(=O)c1ccc(-c2cncc(C#N)c2)nc1Oc1c(C)nc(C(F)(F)F)nc1C . Output its pEC50 only.
Result :: 5.00 to 6.00
